# System: MDR P. aeruginosa clinical isolates
# protocol_notes: Resistance phenotype (MICs of antibiotics) of MDR clinical isolates
# Format: cell-based, Pseudomonas aeruginosa
# stated_conditions: Pseudomonas aeruginosa, 259-96196; read-out: MIC
Attribute: MIC

Known MIC results, listed for orientation:
molecule=CO[C@@]1(NC(=O)Cc2cccs2)C(=O)N2C(C(=O)O)=C(COC(N)=O)CS[C@@H]21 value_type=MIC readout_value="> 32 µg/mL"
molecule=C[C@@H](O)[C@H]1C(=O)N2C(C(=O)O)=C(S[C@@H]3CN[C@H](C(=O)Nc4cccc(C(=O)O)c4)C3)[C@H](C)[C@H]12 value_type=MIC readout_value="> 32 µg/mL"
molecule=COc1c(N2C[C@@H]3CCCN[C@@H]3C2)c(F)cc2c(=O)c(C(=O)O)cn(C3CC3)c12 value_type=MIC readout_value="> 16 µg/mL"

Fill in the blank: the reported MIC of CNC(C)C1CCC(N)C(OC2C(N)CC(N)C(OC3OCC(C)(O)C(NC)C3O)C2O)O1 (centres unmarked) is ____.
> 32 µg/mL

Fill in the blank: the reported MIC of CO/N=C(\C(=O)N[C@@H]1C(=O)N2C(C(=O)O)=C(CSc3nc(=O)c(=O)[nH]n3C)CS[C@H]12)c1csc(N)n1 is ____.
> 64 µg/mL
